molecular target: Histamine H2 receptor (Cavia porcellus); test: Intrinsic activity against histamine H2 receptor; type: functional
Measured parameter: Intrinsic activity
# respond with the number and nothing more

>>> assay_value("CN(C)CCCSC(=N)N")
1.06
>>> assay_value("Cc1nc(C)c(CCN)s1")
0.97
>>> assay_value("Cc1ncsc1CCN")
0.96

input: Consider the compound shown here: "Cc1nc(N)sc1CCN" What is its recorded Intrinsic activity?
output: 0.95

input: Consider the compound shown here: "NCCc1c[nH]cn1" What is its recorded Intrinsic activity?
output: 1

input: Consider the compound shown here: "NCCc1csc(N)n1" What is its recorded Intrinsic activity?
output: 0.94

input: Consider the compound shown here: "NCCc1cnc(N)s1" What is its recorded Intrinsic activity?
output: 1
